For each record, write down the corresponding switch fluorescence ratio.
Test system: ATP;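 note: ATP exposure 15 min at 22 °C before imaging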
Test: switch fluorescence ratio, 500 uM ATP over buffer (Cy3 cluster intensity, sum of 5 cycles each) (fold (ratio)); higher = stronger signal-on switching upon ATP binding; sequences stand for … in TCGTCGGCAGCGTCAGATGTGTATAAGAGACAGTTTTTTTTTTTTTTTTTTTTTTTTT…TC
Details: aptamer strand: ATP DNA aptamer (quencher-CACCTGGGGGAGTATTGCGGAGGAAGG + anchor), 100 nM annealed; ATP concentration: 500 uM
Please respond with just the number, no unit label.

Query: Complete the entry with switch fluorescence ratio for CTGGCGAGGG
Result: 1.01

Query: Return reported switch fluorescence ratio. Input sequence: AGTGATGTGG
Result: 1

Query: Give the reported value of switch fluorescence ratio for this record: TATGGTGAAG
Result: 1

Query: Supply reported switch fluorescence ratio belonging to this sequence: ATCCTTGTTT
Result: 0.997

Query: Name the recorded switch fluorescence ratio of the sequence listed here: GGAAGTAGAT
Result: 1.01

Query: In one line, give reported switch fluorescence ratio of the entry AATTGTATGT .
Result: 0.989

Query: Read the entry CCTCTACG and write its reported switch fluorescence ratio.
Result: 1.41

Query: Give the measured switch fluorescence ratio for TTGGATACGT
Result: 1.03

Query: Tell me its switch fluorescence ratio given CAGGGGCCGG as the entry.
Result: 0.978

Query: Read off the recorded switch fluorescence ratio for AGGGGGGGGT
Result: 1

Query: Give the reported switch fluorescence ratio for this sequence. ATGTTTAATC
Result: 0.986

Query: Look up and report measured switch fluorescence ratio for this entry: GGTTTCTGGG
Result: 0.963

Query: In one line, give reported switch fluorescence ratio of the entry TAGGGGTTGT .
Result: 1.02

Query: Supply switch fluorescence ratio value. Item: GGGCAGTTTT
Result: 0.991

Query: Please supply the value of reported switch fluorescence ratio for the item TTTTGGAGCC
Result: 1.06

Query: Complete the entry with switch fluorescence ratio for GCGTGGAGGA
Result: 1.05

Query: Please list switch fluorescence ratio recorded for the sequence AAGCATAGGA
Result: 1.02

Query: Provide measured switch fluorescence ratio value, entry: GATTTTCGCG
Result: 1.02

Query: For the sequence TTATCGAGAA , give its reported switch fluorescence ratio.
Result: 0.988

Query: Tell us which switch fluorescence ratio value is on record for TGTGTTAGG
Result: 1.01

Query: Read the entry GTATGGGGGT and write its reported switch fluorescence ratio.
Result: 0.963

Query: Check the records and state switch fluorescence ratio for TCGTATAAGG
Result: 0.982

Query: Quick one: give measured switch fluorescence ratio for TAAAAAAGGA
Result: 1.05

Query: Return value of switch fluorescence ratio for input TTGGGTGTGG , no commentary.
Result: 1.01

Query: Dear colleague, please send me the reported switch fluorescence ratio for ACTAATCGTG when you can.
Result: 1.02

Query: Give reported switch fluorescence ratio value for ATTAGCGAGA
Result: 1.03

Query: Provide switch fluorescence ratio value for the following sequence: ACAAGTGCGG
Result: 1.05

Query: For the sequence TAATGAATGT , give its measured switch fluorescence ratio value.
Result: 1.02

Query: Look up and report measured switch fluorescence ratio for this entry: TCATAAAACC
Result: 1.09

Query: Input TATGTGTGTG , output reported switch fluorescence ratio.
Result: 0.989

Query: Give the value of switch fluorescence ratio reported for the following: TTTGATTTTG
Result: 0.989

Query: Look up and report measured switch fluorescence ratio for this entry: AGGTAAAGGC
Result: 1.02

Query: Give the reported value of switch fluorescence ratio for this record: CGCACTTCTG
Result: 1.02

Query: Give a short answer stating reported switch fluorescence ratio for CGAATGGCCC .
Result: 1

Query: For TCTTTTAATT , write its switch fluorescence ratio.
Result: 1.05

Query: Query switch fluorescence ratio for AAAATCGTCT
Result: 1.08

Query: Indicate its recorded switch fluorescence ratio; the sequence in question is ACTGGTTCGT
Result: 0.998

Query: Read the entry CCAACGGTGC and write its reported switch fluorescence ratio.
Result: 2.24

Query: For the sequence GGTCGTTTCG , give its reported switch fluorescence ratio.
Result: 1.01

Query: Identify measured switch fluorescence ratio associated with TAAGTCGTTG
Result: 1.03

Query: Provide switch fluorescence ratio value for the following sequence: TATGAGGGTG
Result: 1.08

Query: Quickly give me recorded switch fluorescence ratio for ATCTGTGGA
Result: 1.01

Query: Supply recorded switch fluorescence ratio for GGCATTGAGG here.
Result: 0.988

Query: Determine its reported switch fluorescence ratio: CCTTACATCG
Result: 1.12

Query: Look up and report measured switch fluorescence ratio for this entry: CATCTGCGTT
Result: 1.58

Query: Tell me its switch fluorescence ratio given AATAAGGT as the entry.
Result: 1

Query: // fetch switch fluorescence ratio given entry TGGTAAATGT
Result: 0.97

Query: Please give measured switch fluorescence ratio of the following entry: CACAAAAGTG
Result: 1.02

Query: Let me know recorded switch fluorescence ratio for TCTGGAGTT , thanks.
Result: 1.08

Query: Specify measured switch fluorescence ratio for CGCATTTGGT .
Result: 1.07

Query: Identify measured switch fluorescence ratio associated with AACCGTTGAC
Result: 1.21

Query: Give the reported switch fluorescence ratio for this sequence. TATAATCGTG
Result: 0.988

Query: Identify the reported switch fluorescence ratio for the following entry. GGTGTATAGT
Result: 0.991

Query: Tell us which switch fluorescence ratio value is on record for TTTCTGTTTT
Result: 0.991

Query: Please indicate switch fluorescence ratio recorded for GGGATTGTTG
Result: 0.995

Query: Consider the sequence GTAGGGATGG and give its recorded switch fluorescence ratio.
Result: 1.03

Query: Please supply the value of reported switch fluorescence ratio for the item ATAGGAGTAG
Result: 0.993

Query: Retrieve switch fluorescence ratio measured for GAAATTTAGG and print it.
Result: 0.994

Query: Name the recorded switch fluorescence ratio of the sequence listed here: CGGTAGGTGC
Result: 0.976

Query: Give me measured switch fluorescence ratio, please, for this sequence: AGGGGCGTGA
Result: 0.99

Query: Specify switch fluorescence ratio for CGGGTCGGGA and stop.
Result: 0.995

Query: For the sequence TTGCTGTCGG , give its reported switch fluorescence ratio.
Result: 0.985

Query: Note switch fluorescence ratio for the sequence shown: CTAGCATGGG
Result: 0.999

Query: Return reported switch fluorescence ratio. Input sequence: TATGTAGACG
Result: 1.04

Query: Look up switch fluorescence ratio of CTCGTCCCCG and report it.
Result: 0.994

Query: Please supply the value of reported switch fluorescence ratio for the item AGTCAGTTGG
Result: 0.967

Query: Answer with the recorded switch fluorescence ratio for the sequence listed here: GTGCGCAGAA
Result: 0.988

Query: Give the reported value of switch fluorescence ratio for this record: ATATGTGACG
Result: 1

Query: Identify the reported switch fluorescence ratio for the following entry. TGTGTTTGGT
Result: 0.979

Query: // fetch switch fluorescence ratio given entry GGTTGATTGG
Result: 0.973

Query: // Input: AGTGCGGTGG . Output its switch fluorescence ratio only.
Result: 1

Query: Read off the recorded switch fluorescence ratio for ACATTATTTC
Result: 1.05

Query: Please give measured switch fluorescence ratio of the following entry: TGGGTCAAAG
Result: 0.988

Query: Fill in switch fluorescence ratio for record AGGTTATTA
Result: 0.986

Query: State its switch fluorescence ratio for this sequence: AAAAGACCCG
Result: 1.07

Query: Quickly give me recorded switch fluorescence ratio for TGATATTCGA
Result: 0.997

Query: Tell us which switch fluorescence ratio value is on record for CGGGAGACAT
Result: 1.01

Query: Tell me switch fluorescence ratio reported for GGGTCTCAGT
Result: 0.994

Query: Return reported switch fluorescence ratio. Input sequence: AAGAGCTTTG
Result: 0.99

Query: Give the reported switch fluorescence ratio for this sequence. GGGTTTTGCT
Result: 0.955

Query: Using the record for TCGAATGGAT , state its measured switch fluorescence ratio.
Result: 0.991

Query: Please report switch fluorescence ratio for the following sequence: CAGTAATTAT
Result: 0.997

Query: Identify switch fluorescence ratio associated with the sequence CATTGGAGGA
Result: 1.02

Query: // fetch switch fluorescence ratio given entry TAGCGGGTCA
Result: 0.966

Query: Give switch fluorescence ratio for the following sequence: ATAGGAGTCT
Result: 1.09

Query: Identify measured switch fluorescence ratio corresponding to TAAACCGAGC
Result: 1.73
